TARGET OR TEST SYSTEM: human TRPV4 (Homo sapiens (Human))
Sequence (Q9HBA0 whole entry): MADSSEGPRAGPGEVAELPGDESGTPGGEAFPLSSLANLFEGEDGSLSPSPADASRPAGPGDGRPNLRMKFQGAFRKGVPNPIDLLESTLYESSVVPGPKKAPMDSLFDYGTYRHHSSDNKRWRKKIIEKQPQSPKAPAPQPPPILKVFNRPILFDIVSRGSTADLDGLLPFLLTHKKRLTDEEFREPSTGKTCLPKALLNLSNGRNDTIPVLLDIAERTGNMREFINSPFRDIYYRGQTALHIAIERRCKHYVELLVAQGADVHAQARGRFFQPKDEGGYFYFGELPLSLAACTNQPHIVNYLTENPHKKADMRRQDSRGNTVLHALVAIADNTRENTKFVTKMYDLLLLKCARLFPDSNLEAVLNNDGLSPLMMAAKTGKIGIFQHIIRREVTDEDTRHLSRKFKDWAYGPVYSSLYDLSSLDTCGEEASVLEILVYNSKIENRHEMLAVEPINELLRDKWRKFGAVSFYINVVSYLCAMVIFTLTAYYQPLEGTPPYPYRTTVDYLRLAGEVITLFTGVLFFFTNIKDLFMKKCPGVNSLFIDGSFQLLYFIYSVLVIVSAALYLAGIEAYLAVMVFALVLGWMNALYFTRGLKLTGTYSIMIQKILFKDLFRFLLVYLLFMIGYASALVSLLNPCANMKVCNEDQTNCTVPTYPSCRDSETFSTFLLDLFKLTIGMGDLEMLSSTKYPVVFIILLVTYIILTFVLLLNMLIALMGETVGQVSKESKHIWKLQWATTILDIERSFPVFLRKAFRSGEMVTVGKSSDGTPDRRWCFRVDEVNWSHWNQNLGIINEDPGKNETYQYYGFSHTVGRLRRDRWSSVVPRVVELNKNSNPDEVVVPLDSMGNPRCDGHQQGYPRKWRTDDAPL
PROCEDURE TEXT: Test Example 1: measurement of TRPV4 inhibitory activity (Fluo 4-AM, FLIPR TETRA, 4α-PDD 1 μmol/L)
Format: cell-based
TEST CONTEXT: hTRPV4/CHO cells, calculated from IC50 and 4α-PDD EC50
pKi: −log10 of the molar value.
ASSAY ENDPOINT: pKi

Solved entries (count: 3):
>>> print(df.to_string())
                                   compound  observed_measurement
0  Cc1c(C(=O)Nc2cccc(C(F)(F)F)c2)cc(C(C)(C)C)n1C1CCN(CCO)CC1 [Compound I-110]                  5.62
1  Cc1c(C(=O)Nc2cccc(C(F)(F)F)c2)cc(-c2ccncc2)n1CCCN1CCOCC1 [Compound I-074]                  6.11
2  Cc1c(C(=O)Nc2cccc(C(F)(F)F)c2)cc(C(C)(C)C)n1CCC(=O)N1CCOCC1 [Compound I-091]                  6.25

1. Cc1c(C(=O)Nc2cccc(C(F)(F)F)c2)cc(C(C)(C)C)n1CCC(=O)N1CCNCC1 [Compound I-093]
2. Cc1c(C(=O)Nc2cccc(C(F)(F)F)c2)cc(C2CCN(C(=O)OCc3ccccc3)CC2)n1CCCN1CCOCC1 [Compound I-075]
Problem: Please tell me which of the two, 1 or 2 , has the higher reported pKi value. Output the label that corresponds to your choice.
Solution: 2
(2: 6.89, 1: 6.28)
